measurement.notes: NCI Yeast Anticancer Drug Screen. Data for the rad50 strain (AID 155);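 further: 0% = growth of vehicle-only cultures of the same strain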
details: S. cerevisiae rad50 strain growth inhibition; at 50.0 µM; active compounds read high
This is part of a sample that, as a whole, favours compounds with a hit. Of some 79,000 tested, about 15% had one in any assay.
Output TRUE for growth inhibition not less than 60%; output FALSE otherwise.

Previously resolved entries follow.
- compound: "COc1ccc2nc3cccc([N+](=O)[O-])c3c(NCCNCCO)c2c1"
  category.label: "TRUE"
- compound: "c1cc(-c2sc(-c3ccncc3)c(-c3ccncc3)c2-c2ccncc2)ccn1"
  category.label: "TRUE"
- compound: "O=[N+]([O-])c1cccc2nc3ccccc3c(NCCCN3CCCCC3)c12"
  category.label: "TRUE"
- compound: "NCCOc1ccc(/C(=C(/Cl)c2ccccc2)c2ccccc2)cc1"
  category.label: "TRUE"
- compound: "COc1ccc(C(=O)/C=C\\c2ccc(Cl)c(Cl)c2)cc1"
  category.label: "TRUE"

Kindly determine if growth inhibition recorded for CC1(C2CC2)C(C#N)(C#N)C1(C#N)C#N is above or exactly 60%. FALSE

Could you do the same for CC1CCC(C2=CSC3CCCCC3N2)CC1 (stereo not given) , please? FALSE

# iterate: C/C(=N\Sc1ccccc1)c1ccccc1O TRUE

Also, NC(=S)N/N=C1\c2ccccc2CCC1CCC1(O)CCc2ccccc2C1=O (stereo not given) please. TRUE

* * *

measurement.notes: NCI Yeast Anticancer Drug Screen. Data for the rad50EPP+ strain (AID 151);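 further: 0% = growth of vehicle-treated control cultures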
details: S. cerevisiae rad50 mutant strain, at 33.0 µM, active compounds read high
About 79,000 compounds went through this panel and 15% of them were active in at least one assay; those are over-represented in the sample as a whole.
Listed below: growth inhibition values for each entry.
Express the result in % but write the number alone.

// known answers, use as guide
- compound: "CN(C)CC1=Nc2cccc3cccc(c23)N1"
  value.unit: "%"
  growth inhibition: -8
- compound: "O=Cc1ccccc1C=O"
  value.unit: "%"
  growth inhibition: 6

What value of growth inhibition has been reported for the following compound? CCOC(=S)SSSC(=S)OCC 99

Could you do the same for O=C1C2=C(c3ccccc31)C(c1ccccc1)N1C(=O)CSC1=N2 (configuration not stated) , please? 33

Likewise for COc1cc2c(cc1OC)[C@@H](Nc1ccc(C#N)cc1)C1COC(=O)[C@@H]1C2c1cc(OC)c(O)c(OC)c1 (some centres not stated) ? 6

Another: c1ccc2c(c1)ccn2CCc1c[nH]c2ccccc12 41

Thanks! And Cc1cccc(C)c1NC(=O)CCC(=O)C(C)C(=O)c1ccc(O)cc1 (configuration not stated) ? 1

* * *

measurement.notes: NCI Yeast Anticancer Drug Screen. Data for the rad50 strain (AID 155);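 further: 0% = growth of vehicle-only cultures of the same strain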
details: S. cerevisiae rad50 strain growth inhibition; at 3.7 µM; active compounds read high
Compounds without any hit were thinned out: in the full panel of roughly 79,000, 15% have a hit. Activity calls are given as the source filed them. Rule as the data show it: active = growth inhibition above about 70%; inactive = the rest.
measure: growth inhibition

# count of solved cases: 6
- compound: "O=S(=O)(NC1CCCC(c2ccccc2)C1)c1ccccc1 (stereo not drawn)"
  growth inhibition: "3% (inactive)"
- compound: "O=C1c2cccc3cccc(c23)C(=O)N1CCNCCN1C(=O)c2cccc3cccc(c23)C1=O"
  growth inhibition: "3% (inactive)"
- compound: "c1ccc2c(c1)ccn2CCc1c[nH]c2ccccc12"
  growth inhibition: "-20% (inactive)"
- compound: "CC1(C)CC(=O)C(C=NC(=S)C(N)=S)=C(O)C1"
  growth inhibition: "-14% (inactive)"
- compound: "O=C(C(Cl)=C(N1CCCCC1)N1CCCCC1)C(Cl)Cl"
  growth inhibition: "6% (inactive)"
- compound: "c1ccc2nc3c(nc2c1)sc1ccccc13"
  growth inhibition: "75% (active)"

So what does the record say about growth inhibition for C[C@H](CCC1=NC(C)(C)CO1)C1CCC2[C@@H]3C(O)C[C@@H]4CC(O)CC[C@]4(C)C3CC[C@@]21C (stereo partly drawn) ? -4% (inactive)

Do the same for NC(=O)NC1C(c2ccccc2)=C1c1ccccc1 please 70% (active)

What about Nc1ccc(/C=C/c2ccc3cccnc3c2)cc1 ? 29% (inactive)

Subsequent entry: COc1ccc(C(OCC2OC(n3cnc4c(=O)n(Cc5ccccc5[N+](=O)[O-])nnc43)C(O)C2O)(c2ccccc2)c2ccc(OC)cc2)cc1 (stereo not drawn) 24% (inactive)

Entry O=[N+]([O-])c1cc[n+]([O-])c(Cl)c1 please 9% (inactive)

What about O=Cc1ccccc1C=O ? 12% (inactive)

COc1cc(OC)c(CSCC(NC(=O)OCC2c3ccccc3-c3ccccc32)C(=O)O)c(OC)c1 (stereo not drawn) , same question. -9% (inactive)

Please give the result for CCCCCCCCNCCCCCCCC too. 3% (inactive)

What about O=P(C(=S)Nc1c(Cl)cccc1Cl)(c1ccccc1)c1ccccc1 ? 8% (inactive)

Continue with O=C(c1ccccc1)[C@H]1Nc2ccc(Cl)cc2[C@H]2OCCC[C@@H]12 -2% (inactive)

And Oc1c2c(c(O)c3ccccc13)C1(N=N2)c2ccccc2Oc2ccccc21 ? 82% (active)

Subsequent entry: CC(C)OC(=O)NNc1c(Cl)cc(Cl)cc1Cl 7% (inactive)

* * *

measurement.notes: NCI Yeast Anticancer Drug Screen. Data for the sgs1 strain (AID 173);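 further: 0% = growth of vehicle-only control cultures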
details: S. cerevisiae sgs1 mutant, at 1.2 µM, active compounds read high
This is part of a sample that, as a whole, favours compounds with a hit. Of some 79,000 tested, about 15% had one in any assay. Calls of active or inactive are those of the source. Rule as the data show it: active = growth inhibition above about 70%; inactive = the rest.
Here, each record is paired with measured growth inhibition data.

A selection of reference data follows.
- compound: "CC(=O)/C=C/c1cccc([N+](=O)[O-])c1"
  measure: "growth inhibition"
  measured.result: "1% (inactive)"
- compound: "Cc1ccc(C)c(C(=N)c2ccccc2Cc2ccccc2)c1"
  measure: "growth inhibition"
  measured.result: "8% (inactive)"
- compound: "c1cc(-c2sc(-c3ccncc3)c(-c3ccncc3)c2-c2ccncc2)ccn1"
  measure: "growth inhibition"
  measured.result: "3% (inactive)"

Name the reported growth inhibition value associated with the compound CC(C)[Si]1(C(C)C)OCC2OC(n3cnc4c(N)ncnc43)C(N)C2O[Si](C(C)C)(C(C)C)O1 (stereo unspecified) 6% (inactive)

Next entry: Cc1ccc(NC(=O)CCC(=O)C(C)C(=O)c2ccccc2)c(C)c1 (stereo unspecified) 0% (inactive)

Field entry: OC(c1ccccc1)(c1ccccc1)c1nccc2ccccc12 15% (inactive)

Now consider CCCCCCCCCCCCCCCCCCNc1nc(=O)n(C2CC(OP(=O)(O)OCC3OC(n4cc(F)c(=O)[nH]c4=O)CC3O)C(CO)O2)cc1F (stereo unspecified) and answer again. 1% (inactive)

Field entry: CC1CCC(C2=CSC3CCCCC3N2)CC1 (stereo unspecified) 15% (inactive)

Another compound: CCCCCCNCCCNc1c2ccccc2nc2cccc([N+](=O)[O-])c12 62% (inactive)

Proceed to O=C(NC(N1CCN(c2cc3c(cc2F)c(=O)c(C(=O)O)cn3C2CC2)CC1)(C(F)(F)F)C(F)(F)F)c1ccccc1 -3% (inactive)

* * *

measurement.notes: NCI Yeast Anticancer Drug Screen. Data for the wt2 strain (AID 169);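 further: 0% = growth of vehicle-treated yeast cultures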
details: S. cerevisiae wt2 strain growth inhibition; at 11.0 µM
This is part of a sample that, as a whole, favours compounds with a hit. Of some 79,000 tested, about 15% had one in any assay. Active and inactive are the calls of the source. Cut-off read from the data, not from the text of the source: active = growth inhibition above about 70%; inactive = the rest.
The categories you may choose from are Y (active), N (inactive)

Observe how each entry below is paired with its result.
- compound: "Clc1nc(Cl)nc(Nc2cccc3ccccc23)n1"
  category.label: "N"
- compound: "O=C(c1cc(=O)c2ccc(O)cc2o1)c1ccc(Cl)cc1Cl"
  category.label: "N"
- compound: "C=CCNC1=C2C[C@@H](C)C[C@H](OC)[C@H](O)[C@@H](C)/C=C(\\C)[C@H](OC(N)=O)[C@@H](OC)/C=C\\C=C(/C)C(=O)NC(=CC1=O)C2=O"
  category.label: "N"
- compound: "O=[N+]([O-])c1cn[n+]([O-])c2ccccc12"
  category.label: "Y"
- compound: "Cc1c(Cl)c(C)c(Cl)c(O)c1Cl"
  category.label: "N"
- compound: "C/C(=N/NC(=S)Nc1ccccc1C)c1ccccn1"
  category.label: "N"
- compound: "Cc1ccc([N+](=O)[O-])c2c(NCCC[N+](C)(C)[O-])c3ccccc3nc12"
  category.label: "N"
- compound: "COc1ccc2nc(CCc3ccccc3)ccc2c1"
  category.label: "N"

So what was the verdict on Nc1cccc(-c2cc[cH-]c2)c1.[Fe+2].c1cc[cH-]c1 in this test? N

Consider next the compound O=C(O)C1CCCCC1c1c2ccc(=O)cc-2oc2cc(O)ccc12 (configuration not stated) in the same way. N

CC(=O)/C=C/c1cc([N+](=O)[O-])ccc1O ? N

Moving on to the next compound: CN1CCN(C(=O)c2cccc3cccc(C(=O)O)c23)CC1 N
